- TARGET_OR_TEST_SYSTEM: T1, human TIGIT over-expressed on cells (human, UniProt Q495A1 22-244)
- T1 construct: also called CHO-K1/human TIGIT cells; CHO cells expressing human TIGIT
- T1 sequence: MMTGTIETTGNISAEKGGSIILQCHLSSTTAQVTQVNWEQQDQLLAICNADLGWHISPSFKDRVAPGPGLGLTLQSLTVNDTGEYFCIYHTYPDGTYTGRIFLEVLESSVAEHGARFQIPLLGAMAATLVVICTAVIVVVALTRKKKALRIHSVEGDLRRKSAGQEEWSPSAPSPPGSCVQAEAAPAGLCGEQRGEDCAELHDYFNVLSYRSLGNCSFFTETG
- EXPERIMENTAL_PROTOCOL: competition FACS, CHO cells expressing human TIGIT; competitor PVR recombinant protein
Each record here notes measured pIC50.
# pIC50: negative log10 of molar concentration; output just the value

48B5G4E12 (antibody, V domains shown, Mouse monoclonal antibody; also called mouse anti-human TIGIT monoclonal antibody 48B5G4E12) VH: QVQLQQPGAELVKPGASVKMSCKASGYTFTSYNMHWVKQTPGQGLEWIGGIYPGNGATSYNQKFKGKATLTADKSSSTAYMQLSSLTSEDSAVYYCARSGLRAMDYWGQGTSVTVSS VL: QIVLTQSPAIMSASPGEKVTMTCSASSSVSYMYWYQQKTGSSPRLLIYDTSNLASGVPVRFSGSGSGTSYSLTISRMEAEDAATYYCQQWSSYPYTFGGGTKLEIK; 8.80
100C4E7D11 (antibody, V domains shown, Mouse monoclonal antibody; also called mouse anti-human TIGIT monoclonal antibody 100C4E7D11) VH: EVMLVESGGGLVKPGGSLKLSCAASGFTFSFYTMSWVRQTPEKRLEWVATISSGGGSTYYSDSVKGRFTISRDNAKNNLYLQMTSLRSEDTALYYCSRSLPVDYWGQGTTLTVSS VL: QIVLTQSPAIMSASLGERVTMTCTASSSVSSTYLHWYQQKPGSSPKLWIYSTSNLASGVPARFSGSGSGTSYSLTISSMEAEDAATYYCHLYHHSPYTFGGGTKLEIK; 8.92
121C2F10B5 (antibody, V domains shown, Mouse monoclonal antibody; also called mouse anti-human TIGIT monoclonal antibody 121C2F10B5) VH: EVQLVESGGDLVKPGGSLKLSCAASGFTFSTYGMSWVRQTPDKRLEWVATISSGGSYTYYPDSVKGRFTISRDNAKNTLYLQMSSLKSEDTAMYYCARQVHYFYAMDYWGQGTSVTVSS VL: DIQMTQSPASLSVSVGETVTITCRASENIYSNLAWYQQKQGKSPQVLVYAATNLADGVPSRFSGSRSGTQYSLKINSLQSEDFGSYYCQHFWDNAYTFGGGTKLEIK; 9.22
11D8E12A4 (antibody, V domains shown, Mouse monoclonal antibody; also called mouse anti-human TIGIT monoclonal antibody 11D8E12A4) VH: EVLLQQSGPELVKPGASVKIPCKASGYTFTDYNMDWVKQSHGKSLEWIGDINPNNGGTIYNQKFKGKATLTVDKSSSTAYMELRSLTSEDTAVYYCARRWLLLVYTMDYWGQGTSVTVSS VL: QIVLTQSPAIMSASPGEKVTISCSASSSVSYMYWYQQKPGSSPKPWIYRTSNLASGVPARFSGSGSGTSYSLTISSMEAEDAATYYCHQYHNYPPTFGGGTKLEIK; 7.13

Lab note: next binder to report on.
Suppose we examine the binder 104G12E12G2 (antibody, V domains shown, Mouse monoclonal antibody; also called mouse anti-human TIGIT monoclonal antibody 104G12E12G2) VH: EVQLQQSGPELVKPGASVKISCKASGYSFTGSYIHWVKQNHVKTLEWIGRINPHNGPTSYNQNFKGKASLTVDLSSSTAYMEVHSLTSEDSAVYYCVRYDGYYGGALDYWGQGTSVTVSS VL: DIQMTQSPSSLSASLGERVSLTCRASQEISGYLSWLQQKPDGTIKRLIYAASTLDSGVPKRFSGSRSGSDYSLTISSLESEDFADYYCLQYASYPYTFGGGTKLEIK ; what pIC50 value has been reported? 8.62
